Measured IC50 of individual entries
target_entity: varicella zoster virus DNA polymerase (Varicella-zoster virus, UniProt P09252)
Sequence (P09252 whole entry): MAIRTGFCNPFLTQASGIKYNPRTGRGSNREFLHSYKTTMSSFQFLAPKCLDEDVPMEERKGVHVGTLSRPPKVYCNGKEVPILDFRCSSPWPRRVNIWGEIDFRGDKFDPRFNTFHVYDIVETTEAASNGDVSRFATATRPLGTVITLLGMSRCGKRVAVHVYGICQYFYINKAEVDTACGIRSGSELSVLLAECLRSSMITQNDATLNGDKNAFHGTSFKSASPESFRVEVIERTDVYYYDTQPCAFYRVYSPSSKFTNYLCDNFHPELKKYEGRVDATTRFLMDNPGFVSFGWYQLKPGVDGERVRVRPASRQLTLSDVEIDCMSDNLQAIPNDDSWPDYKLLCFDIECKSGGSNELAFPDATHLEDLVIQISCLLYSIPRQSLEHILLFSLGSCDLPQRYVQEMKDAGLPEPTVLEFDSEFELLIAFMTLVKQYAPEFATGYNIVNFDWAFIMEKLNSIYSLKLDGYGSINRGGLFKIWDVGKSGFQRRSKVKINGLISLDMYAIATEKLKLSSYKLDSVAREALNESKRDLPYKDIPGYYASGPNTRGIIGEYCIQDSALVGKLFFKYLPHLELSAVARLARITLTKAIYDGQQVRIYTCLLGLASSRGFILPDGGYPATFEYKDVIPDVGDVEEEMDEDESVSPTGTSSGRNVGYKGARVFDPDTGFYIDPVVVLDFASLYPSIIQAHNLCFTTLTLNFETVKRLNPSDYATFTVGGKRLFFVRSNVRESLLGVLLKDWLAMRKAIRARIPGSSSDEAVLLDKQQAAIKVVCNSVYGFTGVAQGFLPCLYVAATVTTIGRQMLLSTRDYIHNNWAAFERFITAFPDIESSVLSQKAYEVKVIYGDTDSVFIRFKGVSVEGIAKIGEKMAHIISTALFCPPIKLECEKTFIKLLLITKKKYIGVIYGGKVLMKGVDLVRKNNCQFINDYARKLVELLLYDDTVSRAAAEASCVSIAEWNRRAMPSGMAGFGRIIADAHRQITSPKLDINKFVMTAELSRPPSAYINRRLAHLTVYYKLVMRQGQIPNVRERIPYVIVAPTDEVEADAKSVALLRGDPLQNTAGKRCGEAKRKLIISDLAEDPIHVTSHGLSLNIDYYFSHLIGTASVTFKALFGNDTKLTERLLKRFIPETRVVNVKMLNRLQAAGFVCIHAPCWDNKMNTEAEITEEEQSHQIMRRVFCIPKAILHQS

>  <compound>
Cn1cc(-c2cnc(C(=O)NCc3ccc(Cl)cc3)cc2O[C@H]2CCN3C(=O)COC[C@@H]3C2)cn1 (racemic) [Compound 157]

>  <IC50 [nM]>
70.8

$$$$
>  <compound>
CC(=O)N1CCC(Oc2cc(C(=O)NCc3ccc(Cl)cc3)ncc2-c2cnc(C)s2)CC1 [Compound 43]

>  <IC50 [nM]>
14.6

$$$$
>  <compound>
Cc1ccn(-c2cnc(C(=O)NCc3ccc(Cl)cc3)cc2O[C@H]2CCN3C(=O)OC[C@@H]3C2)n1 [Compound 106]

>  <IC50 [nM]>
197

$$$$
>  <compound>
CC(=O)N1CCC(Oc2cc(C(=O)NCc3ccc(Cl)cc3)ncc2-c2cc[nH]n2)CC1 [Compound 64]

>  <IC50 [nM]>
65.3

$$$$
>  <compound>
CN(C)CCn1cc(-c2cnc(C(=O)NCc3ccc(Cl)cc3)cc2O[C@H]2CCN3C(=O)OC[C@@H]3C2)cn1 (racemic) [Compound 10]

>  <IC50 [nM]>
41.7

$$$$
>  <compound>
Cn1cc(-c2cnc(C(=O)N3CCCC3c3ccc(Cl)cc3)cc2O[C@H]2CCN3C(=O)OC[C@@H]3C2)cn1 (some centres unmarked) [Compound 100]

>  <IC50 [nM]>
426

$$$$
>  <compound>
CCc1noc(-c2cnc(C(=O)NCc3ccc(Cl)cc3)cc2O[C@H]2CCN3C(=O)OC[C@@H]3C2)n1 [Compound 149]

>  <IC50 [nM]>
6.31

$$$$
>  <compound>
CN(Cc1cnc(C(=O)NCc2ccc(Cl)cc2)cc1O[C@H]1CCN2C(=O)OC[C@@H]2C1)[C@H]1CCOC1 [Compound 143]

>  <IC50 [nM]>
13.4

$$$$
>  <compound>
CC(C)(O)Cn1cc(-c2cnc(C(=O)NCc3ccc(Cl)cc3)cc2O[C@H]2CCN3C(=O)OC[C@@H]3C2)cn1 [Compound 35]

>  <IC50 [nM]>
7.5

$$$$
>  <compound>
O=C(NCc1ccc(Cl)cc1)c1cc(O[C@H]2CCN3C(=O)OC[C@@H]3C2)c(-c2nccs2)cn1 [Compound 40]

>  <IC50 [nM]>
9.39

$$$$
>  <compound>
Cn1ccc(-c2cnc(C(=O)NCc3ccc(Cl)cc3)cc2O[C@H]2CCN3C(=O)OC[C@@H]3C2)n1 [Compound 30]

>  <IC50 [nM]>
16.3

$$$$
>  <compound>
CC(=O)N1CCC(Oc2cc(C(=O)NCc3ccc(Cl)cc3)ncc2C#Cc2ccc(C)cn2)CC1 [Compound 71]

>  <IC50 [nM]>
119

$$$$
>  <compound>
Cc1cnc(-c2cnc(C(=O)NCc3ccc(Cl)cc3)cc2OC(C)C)s1 [Compound 103]

>  <IC50 [nM]>
956

$$$$
>  <compound>
Cn1cc(-c2cnc(C(=O)NCc3ccc(Cl)cc3)cc2OC2CCC(C#N)CC2)cn1 (centres unmarked) [Compound 168]

>  <IC50 [nM]>
67.6

$$$$
>  <compound>
CC(C)(O)Cc1cnc(C(=O)NCc2ccc(Cl)cc2)cc1O[C@H]1CCN2C(=O)OC[C@@H]2C1 [Compound 111]

>  <IC50 [nM]>
13.8

$$$$
>  <compound>
Cc1ncc(-c2cnc(C(=O)NCc3ccc(Cl)cc3)cc2O[C@H]2CCN3C(=O)OC[C@@H]3C2)o1 [Compound 32]

>  <IC50 [nM]>
0.55

$$$$
>  <compound>
COC1CC(c2cnc(C(=O)NCc3ccc(Cl)cc3)cc2O[C@H]2CCN3C(=O)OC[C@@H]3C2)C1 (some centres unmarked) [Compound 110]

>  <IC50 [nM]>
4.84

$$$$
>  <compound>
CC(=O)N1CCC(Oc2cc(C(=O)NCc3ccc(Cl)cc3)ncc2-c2cnn(C(F)F)c2)CC1 [Compound 70]

>  <IC50 [nM]>
27.8

$$$$
>  <compound>
CC(=O)N1CCC(Oc2cc(C(=O)NCc3ccc(Cl)cc3)ncc2-c2ccns2)CC1 [Compound 46]

>  <IC50 [nM]>
3.98

$$$$
>  <compound>
Cn1cc(-c2cnc(C(=O)NCc3ccc(C#N)c(F)c3)cc2O[C@H]2CCN3C(=O)OC[C@@H]3C2)cn1 [Compound 93]

>  <IC50 [nM]>
1.99

$$$$
>  <compound>
Cc1cnc(C(=O)NCc2ccc(Cl)cc2)cc1O[C@H]1CCN2C(=O)CC[C@@H]2C1 [Compound 169]

>  <IC50 [nM]>
5.45

$$$$
>  <compound>
C[C@@H]1CN(C)CCN1c1cc(C(=O)NCc2ccc(Cl)cc2)ncc1OCC(F)(F)F [Compound 176]

>  <IC50 [nM]>
115

$$$$
>  <compound>
CC1(O)CCN(Cc2cnc(C(=O)NCc3ccc(Cl)cc3)cc2O[C@H]2CCN3C(=O)OC[C@@H]3C2)C1 (mixture of isomers) [Compound 134]

>  <IC50 [nM]>
95.4

$$$$
>  <compound>
O=C(NCc1ccc(Cl)cc1)c1cc(O[C@H]2CCN3C(=O)OC[C@@H]3C2)c(CN2CCCOCC2)cn1 [Compound 138]

>  <IC50 [nM]>
13.7

$$$$
>  <compound>
O=C(NCc1ccc(Cl)cc1)c1cc(O[C@H]2CCN3C(=O)OC[C@@H]3C2)c(CNC2CC2)cn1 [Compound 141]

>  <IC50 [nM]>
44.8

$$$$
>  <compound>
CC(=O)N1CCC(Oc2cc(C(=O)NCc3ccc(Cl)cc3)ncc2-c2cnc(C)o2)CC1 [Compound 66]

>  <IC50 [nM]>
18.6

$$$$
>  <compound>
C[C@H](NC(=O)c1cc(O[C@H]2CCN3C(=O)OC[C@@H]3C2)c(-c2cnn(C(F)F)c2)cn1)c1ccc(Cl)cc1 [Compound 81]

>  <IC50 [nM]>
11.9

$$$$
>  <compound>
O=C(NCc1ccc(Cl)cc1)c1cc(O[C@H]2CCN3C(=O)OC[C@@H]3C2)c(C2CC2O)cn1 (some centres unmarked) [Compound 154]

>  <IC50 [nM]>
11.4

$$$$
>  <compound>
O=C(NCc1ccc(Cl)cc1)c1cc(O[C@H]2CCN3C(=O)OC[C@@H]3C2)c(/C=C/CO)cn1 [Compound 155]

>  <IC50 [nM]>
4.71

$$$$

Values were extracted from patent US20240067657A1.
